Assay: qHTS for Inhibitors of human tyrosyl-DNA phosphodiesterase 1 (TDP1): qHTS in cells in absence of CPT; note: nearly all actives have a fitted effect of over 55% in size
Conditions: DT40 Tdp1-/- hTDP1 cells, no CPT, ATP luminescence, 48 h
Among all 420,000 compounds or so, about 64,000 (15%) were called active. Inconclusive results (about 27%) are left out. Calls come from the whole dose curve; as a rule, active = well fitted inhibition curve with a large enough effect; inconclusive = small, poorly fitted or top-dose-only effect; inactive = flat fitted curve, though single readings scatter. The list is a sample of the results.
Response enum: active, inactive

Solved cases below.
COc1cccc(OC)c1C(=O)N1CCN(Cc2cccnc2)CC1 | inactive
COc1ccccc1-c1nn(Cc2ccccc2)cc1C(=O)N1CCN(c2ncccn2)CC1 | active
Cc1ccc(OCC(=O)Nc2ccc(N3CCN(C(=O)c4ccco4)CC3)cc2)c(C)c1 | active
COc1cccc(OCc2cc(C(=O)N3CCN(C(=O)c4ccco4)CC3)no2)c1 | inactive
NS(=O)(=O)c1ccc(NC(=O)C(=O)Nc2ccc3nc4n(c(=O)c3c2)CCCCC4)cc1 | inactive

Exam item: Test call, this compound: COc1cccc(C(=O)Nc2ccc(N3CCCC3)cc2)c1
Marked response: active

Exam item: Test call, this compound: COc1cccc(C(C(=O)NC2CCCC2)N(C(=O)c2ccco2)c2cccc(C(C)=O)c2)c1OC (stereo not given)
Marked response: inactive

Exam item: Test call, this compound: O=C(c1ccco1)N1CCN(c2cccc(Cl)c2)CC1
Marked response: inactive

Exam item: Test call, this compound: CCCCN(CC)C(=S)Nc1ccc2nc3n(c(=O)c2c1)CCCCC3
Marked response: inactive

Exam item: Test call, this compound: COc1cccc(C(=O)Nc2ccc3nc4n(c(=O)c3c2)CCCCC4)c1
Marked response: active
